Here the recorded APDc is given for each entry.
PROCEDURE_TEXT: Electrical activity assay on cell lines treated with a given drug. DMSO was used as a vehicle and a control, unblinded dofetilide was used as a control.
Format: cell-based
Set-up: unit not given here
RUN_PARAMETERS: human, ipsc-cm, 1 µM; concentration (um) 1 uM
Reply with the value as a number alone.

CN1CCN(CCCCN2C(=O)CN(/N=C/c3ccc(-c4ccc(Cl)cc4)o3)C2=O)CC1 [AZIMILIDE]
63.58
CC[C@H]1OC(=O)[C@H](C)[C@@H](O[C@H]2C[C@@](C)(OC)[C@@H](O)[C@H](C)O2)[C@H](C)[C@@H](O[C@@H]2O[C@H](C)C[C@H](N(C)C)[C@H]2O)[C@](C)(OC)C[C@@H](C)C(=O)[C@H](C)[C@@H](O)[C@]1(C)O
53.12
COc1ccc([C@@H]2Sc3ccccc3N(CCN(C)C)C(=O)[C@@H]2OC(C)=O)cc1
40.25

Now look at this entry.
Determine from records and report APDc for CC(C)COCC(CN(Cc1ccccc1)c1ccccc1)N1CCCC1 (centres undefined)
57.33

----------
Here the recorded FPDc is given for each entry.
PROCEDURE_TEXT: Electrical activity assay on cell lines treated with a given drug. DMSO was used as a vehicle and a control, unblinded dofetilide was used as a control.
RUN_PARAMETERS: human, ipsc-cm, 0.01 µM
Reply with the value as a number alone.

Worked cases, FPDc given:
COC(=O)C1=C(C)NC(C)=C(C(=O)OC)C1c1ccccc1[N+](=O)[O-] [NIFEDIPINE]
43.95
COc1ccc(CCN2CCC(Nc3nc4ccccc4n3Cc3ccc(F)cc3)CC2)cc1 [ASTEMIZOLE]
57.8
COc1ccc([C@@H]2Sc3ccccc3N(CCN(C)C)C(=O)[C@@H]2OC(C)=O)cc1 [DILTIAZEM]
53.63

Now look at this entry.
Determine from records and report FPDc for CN1CCN(CCCCN2C(=O)CN(/N=C/c3ccc(-c4ccc(Cl)cc4)o3)C2=O)CC1 [AZIMILIDE]
55.32

----------
PROCEDURE_TEXT: Electrical activity assay on cell lines treated with a given drug. DMSO was used as a vehicle and a control, unblinded dofetilide was used as a control.
RUN_PARAMETERS: human, ipsc-cm, 0.001 µM
Here the recorded FPD measurement is given for each entry.
Note: unit FPDc is implicit; provide only the numeric part.

Worked cases, FPD measurement given:
C[S+](C)[O-] [DIMETHYL SULFOXIDE]
55.35
COc1ccc(CCN2CCC(Nc3nc4ccccc4n3Cc3ccc(F)cc3)CC2)cc1
55.33
CCCCCCCN(CC)CCCC(O)c1ccc(NS(C)(=O)=O)cc1 (centres undefined) [IBUTILIDE]
63.97

Determine from records and report FPD measurement for COC(=O)C1=C(C)NC(C)=C(C(=O)OC)C1c1ccccc1[N+](=O)[O-]
50.88

----------
PROCEDURE_TEXT: Electrical activity assay on cell lines treated with a given drug. DMSO was used as a vehicle and a control, unblinded dofetilide was used as a control.
Type: ADME, cell-based
Parameters: unit not given here
RUN_PARAMETERS: human, ipsc-cm, 0.1 µM; concentration (um) 0.1 uM
MEASURED_PARAMETER: FPDc

Worked cases, FPDc given:
COc1ccc(CCN2CCC(Nc3nc4ccccc4n3Cc3ccc(F)cc3)CC2)cc1 [ASTEMIZOLE]
40.28
Cc1nc2n(c(=O)c1CCN1CCC(c3noc4cc(F)ccc34)CC1)CCCC2 [RISPERIDONE]
61.9
COc1ccc(CCN(C)CCCC(C#N)(c2ccc(OC)c(OC)c2)C(C)C)cc1OC (stereo not given) [VERAPAMIL]
56.48

Determine from records and report FPDc for COc1ccccc1OCC(O)CN1CCN(CC(=O)Nc2c(C)cccc2C)CC1 (stereo not given) [RANOLAZINE]
63.44

Determine from records and report FPDc for CC(C)N(CCC(C(N)=O)(c1ccccc1)c1ccccn1)C(C)C (stereo not given) [DISOPYRAMIDE]
48.43

----------
PROCEDURE_TEXT: Electrical activity assay on cell lines treated with a given drug. DMSO was used as a vehicle and a control, unblinded dofetilide was used as a control.
Format: cell-based
RUN_PARAMETERS: human, ipsc-cm, 1 µM; concentration (um) 1 uM
Here the recorded FPD measurement is given for each entry.
Note: unit FPDc is implicit; provide only the numeric part.

Determine from records and report FPD measurement for CC(C)COCC(CN(Cc1ccccc1)c1ccccc1)N1CCCC1 (centres undefined)
57.33

Determine from records and report FPD measurement for COc1ccc([C@@H]2Sc3ccccc3N(CCN(C)C)C(=O)[C@@H]2OC(C)=O)cc1
40.25

Determine from records and report FPD measurement for CN1CCN(CCCCN2C(=O)CN(/N=C/c3ccc(-c4ccc(Cl)cc4)o3)C2=O)CC1 [AZIMILIDE]
63.58

Determine from records and report FPD measurement for CC[C@H]1OC(=O)[C@H](C)[C@@H](O[C@H]2C[C@@](C)(OC)[C@@H](O)[C@H](C)O2)[C@H](C)[C@@H](O[C@@H]2O[C@H](C)C[C@H](N(C)C)[C@H]2O)[C@](C)(OC)C[C@@H](C)C(=O)[C@H](C)[C@@H](O)[C@]1(C)O
53.12

----------
PROCEDURE_TEXT: Electrical activity assay on cell lines treated with a given drug. DMSO was used as a vehicle and a control, unblinded dofetilide was used as a control.
RUN_PARAMETERS: human, ipsc-cm, 0.1 µM
Here the recorded FPDc is given for each entry.

Worked cases, FPDc given:
COC(=O)C1=C(C)NC(C)=C(C(=O)OC)C1c1ccccc1[N+](=O)[O-]
24.94
CN1CCN(CCCCN2C(=O)CN(/N=C/c3ccc(-c4ccc(Cl)cc4)o3)C2=O)CC1 [AZIMILIDE]
56.52
COc1ccc(CCN2CCC(Nc3nc4ccccc4n3Cc3ccc(F)cc3)CC2)cc1
75.34
COc1ccc([C@@H]2Sc3ccccc3N(CCN(C)C)C(=O)[C@@H]2OC(C)=O)cc1
45.42

Determine from records and report FPDc for Cc1nc2n(c(=O)c1CCN1CCC(c3noc4cc(F)ccc34)CC1)CCCC2
65.06

----------
Here the recorded FPDc is given for each entry.
PROCEDURE_TEXT: Electrical activity assay on cell lines treated with a given drug. DMSO was used as a vehicle and a control, unblinded dofetilide was used as a control.
Assay type: ADME, cell-based
RUN_PARAMETERS: human, ipsc-cm, 0.01 µM; concentration (um) 0.01 uM
Reply with the value as a number alone.

C[S+](C)[O-] [DIMETHYL SULFOXIDE]
20.63
CC(C)(C)c1ccc(C(O)CCCN2CCC(C(O)(c3ccccc3)c3ccccc3)CC2)cc1 (centres undefined)
19.19
COC(=O)C1=C(C)NC(C)=C(C(=O)OC)C1c1ccccc1[N+](=O)[O-]
17.1

Determine from records and report FPDc for COc1cc2c(Nc3ccc(Br)cc3F)ncnc2cc1OCC1CCN(C)CC1
21.62

----------
PROCEDURE_TEXT: Electrical activity assay on cell lines treated with a given drug. DMSO was used as a vehicle and a control, unblinded dofetilide was used as a control.
RUN_PARAMETERS: human, ipsc-cm, 0.1 µM
Threshold 60 FPDc. FPD measurement below it: satisfied. FPD measurement at it or above: not satisfied.

As a guide, the following entries are already answered.
CC(C)NCC(O)c1ccc(NS(C)(=O)=O)cc1 (stereo unspecified) [SOTALOL]
not satisfied
Cc1cccc(C)c1OCC(C)N (stereo unspecified) [MEXILETINE]
satisfied
CC(C)N(CCC(C(N)=O)(c1ccccc1)c1ccccn1)C(C)C (stereo unspecified) [DISOPYRAMIDE]
satisfied

Please indicate whether the reported FPD measurement of COc1ccccc1OCC(O)CN1CCN(CC(=O)Nc2c(C)cccc2C)CC1 (stereo unspecified) [RANOLAZINE] is strictly below 60 FPDc.
not satisfied

----------
PROCEDURE_TEXT: Electrical activity assay on cell lines treated with a given drug. DMSO was used as a vehicle and a control, unblinded dofetilide was used as a control.
RUN_PARAMETERS: human, ipsc-cm, 100 µM
Here the recorded FPD measurement is given for each entry.
Note: unit FPDc is implicit; provide only the numeric part.

Worked cases, FPD measurement given:
Cc1cccc(C)c1OCC(C)N (centres undefined)
74.46
COc1ccccc1OCC(O)CN1CCN(CC(=O)Nc2c(C)cccc2C)CC1 (centres undefined)
60.49

Determine from records and report FPD measurement for CC(C)NCC(O)c1ccc(NS(C)(=O)=O)cc1 (centres undefined)
79.39

Determine from records and report FPD measurement for CC(C)N(CCC(C(N)=O)(c1ccccc1)c1ccccn1)C(C)C (centres undefined) [DISOPYRAMIDE]
66.87

----------
PROCEDURE_TEXT: Electrical activity assay on cell lines treated with a given drug. DMSO was used as a vehicle and a control, unblinded dofetilide was used as a control.
Assay type: cell-based
RUN_PARAMETERS: human, ipsc-cm, 0.01 µM; concentration (um) 0.01 uM
Kindly return class 1 if reported FPD measurement is no lower than 60 FPDc; return class 0 if it is lower.

As a guide, the following entries are already answered.
CCCCCCCN(CC)CCCC(O)c1ccc(NS(C)(=O)=O)cc1 (stereo not given) [IBUTILIDE]
class 1
COc1ccc([C@@H]2Sc3ccccc3N(CCN(C)C)C(=O)[C@@H]2OC(C)=O)cc1
class 0
CC(C)COCC(CN(Cc1ccccc1)c1ccccc1)N1CCCC1 (stereo not given)
class 0

Confirm if FPD measurement reported for the compound COc1ccc(CCN2CCC(Nc3nc4ccccc4n3Cc3ccc(F)cc3)CC2)cc1 is 60 FPDc or above.
class 0

Confirm if FPD measurement reported for the compound CN1CCN(CCCCN2C(=O)CN(/N=C/c3ccc(-c4ccc(Cl)cc4)o3)C2=O)CC1 [AZIMILIDE] is 60 FPDc or above.
class 0
